Measured koff of individual entries
- System tested: Recombinant human his-tagged IGF 1R extracellular domain protein (human) (UniProt P08069)
- Test name: SPR, captured IgG, IGF-1R ECD-his analyte, dissociation pH 7.4
Hi! Could you send only the number? It should be in s⁻¹, unit omitted.

Binder	Unit name	koff
VRDN-02523 (antibody, V domains shown) VH: EVQLVQSGGGLVKPGGSLRLSCAASGFTFSSFAMHWVRQAPGKGLEWISVIDTRGATYYADSVKGRFTISRDNAKNSLYLQMNSLRAEDTAVYYCARLGNFYHGMDVWGQGTTVTVSS VL: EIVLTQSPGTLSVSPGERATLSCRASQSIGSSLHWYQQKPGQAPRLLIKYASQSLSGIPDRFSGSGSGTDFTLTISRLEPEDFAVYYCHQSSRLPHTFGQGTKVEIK	s⁻¹	2.74e-05

// next item, koff requested
Q) Request the reported koff associated with VRDN-02519 (antibody, V domains shown) VH: EVQLVQSGGGLVKPGGSLRLSCAASGFTFSSFAMHWVRQAPGKGLEWISVIDTRGATYYADSVKGRFTISRDNAKNSLYLQMNSLRAEDTAVYYCARLHNFYYGMDVWGQGTTVTVSS VL: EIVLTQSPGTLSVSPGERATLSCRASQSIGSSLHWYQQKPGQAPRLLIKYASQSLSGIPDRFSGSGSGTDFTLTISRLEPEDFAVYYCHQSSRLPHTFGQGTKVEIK
A) 0.00366

Each recorded value in this set is attributed to patent US20240343814A1.
